- Experiment Summary: MRC5 cytotoxicity assay
- Type: cell-based
- Settings: human, MRC5SV2 cells (human embryonic lung fibroblasts); Table 4; geometric mean of at least two independent tests
Each entry below lists one item and its recorded CC50 at 72 h value.
Express the result in µM but write the number alone.

As a guide, the following entries are already answered.
COc1cccc(-n2ncc(C(=O)Nc3ccc4c(c3)B(O)OC4)c2C)n1 [Compound 17]
40
O=C(Nc1ccc2c(c1)B(O)OC2)c1cn(CCC(F)(F)F)nc1C(F)(F)F [Compound 6]
49

Lab note: next molecule to report on.
(Q) Request the reported CC50 at 72 h associated with Cc1c(C(=O)Nc2ccc3c(c2)B(O)OC3)cnn1-c1ccccn1 [Compound 16]
(A) 61

---

- Experiment Summary: Plasma-protein binding, hamster
- Format: in vitro ADME
- Settings: golden (Syrian), pH 7.4
Property: fraction unbound at 6 h, 2 µM
Field format: numeric only.

(Q) Request the reported fraction unbound at 6 h, 2 µM associated with `Cc1c(C(=O)Nc2ccc3c(c2)B(O)OC3)nnn1-c1ccccn1`
(A) 0.12

---

- Experiment Summary: In vivo pharmacokinetics in rat
- Parameters: species or system male Sprague-Dawley rats
- Settings: male, Sprague-Dawley, rat, plasma; IV 2.32 mg/kg; mean of R1-R3
- Procedure: DNDI-6148 was formulated in 2% ethanol, 1 mol equiv NaOH, dextrose (5% solution), and administrated to male Sprague-Dawley rats, either i.v. after filtration and pH adjustment (at 2 mg/kg), or p.o. as a homogenous suspension (at 10 mg/kg). […] PK parameters were calculated using WinNonlin software (version 6.21 and 6.3).
Property: C0
// return the numeric value with its unit appended

(Q) Request the reported C0 associated with `Cc1c(C(=O)Nc2ccc3c(c2)B(O)OC3)nnn1-c1ccccn1`
(A) 5100 ng/mL

---

- Experiment Summary: In vivo pharmacokinetics in dog
- Parameters: species or system male Beagle dogs
- Settings: male, Beagle, plasma, PO 5 mg/kg, mean
Property: AUC(0-t) (ng·h/mL)
Express the result in ng·h/mL but write the number alone.

(Q) Request the reported AUC(0-t) associated with Cc1c(C(=O)Nc2ccc3c(c2)B(O)OC3)nnn1-c1ccccn1 [Compound 23]
(A) 2470

---

- System Under Test: CYP3A4 (Homo sapiens, UniProt P08684)
- Sequence (P08684 2-503 limits assumed): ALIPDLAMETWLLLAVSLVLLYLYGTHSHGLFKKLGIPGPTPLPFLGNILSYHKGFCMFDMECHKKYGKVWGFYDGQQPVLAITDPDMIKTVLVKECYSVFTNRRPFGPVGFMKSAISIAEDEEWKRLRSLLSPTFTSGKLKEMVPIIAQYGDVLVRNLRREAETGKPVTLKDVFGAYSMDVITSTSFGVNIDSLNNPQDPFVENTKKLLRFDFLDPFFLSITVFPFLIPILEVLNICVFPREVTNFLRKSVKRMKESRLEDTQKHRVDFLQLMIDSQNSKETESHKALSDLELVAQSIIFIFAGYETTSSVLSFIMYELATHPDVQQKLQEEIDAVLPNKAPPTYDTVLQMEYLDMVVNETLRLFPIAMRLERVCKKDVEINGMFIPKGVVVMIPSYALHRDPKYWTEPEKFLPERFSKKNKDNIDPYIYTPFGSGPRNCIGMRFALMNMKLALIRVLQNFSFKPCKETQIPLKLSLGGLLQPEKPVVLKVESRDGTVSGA
- Experiment Summary: CYP inhibition, CYP3A4
- Format: in vitro ADME
- Settings: human liver microsomes
- Protocol: The study was conducted by WuXi AppTec, Co., China, using the time-dependent (TDI) method. […] Following incubation with substrates (phenacetin for 1A2, diclofenac for 2C9, S-(+) mephenytoin for 2C19, dextromethorphan for 2D6, and midazolam or testosterone for 3A4), reactions were stopped by adding ice-cold acetonitrile, the samples were analyzed for the formation of metabolites by LC-MS/MS, and the percentage of inhibition was determined.
Property: IC50

(Q) Request the reported IC50 associated with `Cc1c(C(=O)Nc2ccc3c(c2)B(O)OC3)nnn1-c1ccccn1`
(A) > 50 µM

---

- Experiment Summary: PMM cytotoxicity assay
- Type: cell-based
- Settings: mouse, primary peritoneal mouse macrophages (PMM); supplement csv
Property: CC50 at 3 days

(Q) Request the reported CC50 at 3 days associated with CC1(C)OB(O)c2cc(NC(=O)c3ccc(F)cc3C(F)(F)F)ccc21 [Compound 1, acoziborole, reference compound]
(A) > 64 µM

---

Each entry below lists one item and its recorded CC50 at 72 h value.
- Experiment Summary: MRC5 cytotoxicity assay
- Format: cell-based
- Settings: human, MRC5SV2 cells (human embryonic lung fibroblasts); Table 5; geometric mean of at least two independent tests
Express the result in µM but write the number alone.

Cc1c(-c2ccccn2)csc1C(=O)Nc1ccc2c(c1)B(O)OC2
2.3
O=C(Nc1ccc2c(c1)B(O)OC2)c1cn(-c2ccccn2)nn1
44.8
Cc1c(-c2ccccn2)coc1C(=O)Nc1ccc2c(c1)B(O)OC2
18

Lab note: next molecule to report on.
(Q) Request the reported CC50 at 72 h associated with `Cc1oc(C(=O)Nc2ccc3c(c2)B(O)OC3)cc1-c1ccccn1`
(A) 45

FYI, the data here is from paper PMC8591608.
